Target: recombinant human Cox-2 (r-hu Cox-2) (Homo sapiens, UniProt P35354)
Construct: made in house; host or cells: baculovirus/Sf9 insect cells (microsomes)
Sequence (P35354 18-604): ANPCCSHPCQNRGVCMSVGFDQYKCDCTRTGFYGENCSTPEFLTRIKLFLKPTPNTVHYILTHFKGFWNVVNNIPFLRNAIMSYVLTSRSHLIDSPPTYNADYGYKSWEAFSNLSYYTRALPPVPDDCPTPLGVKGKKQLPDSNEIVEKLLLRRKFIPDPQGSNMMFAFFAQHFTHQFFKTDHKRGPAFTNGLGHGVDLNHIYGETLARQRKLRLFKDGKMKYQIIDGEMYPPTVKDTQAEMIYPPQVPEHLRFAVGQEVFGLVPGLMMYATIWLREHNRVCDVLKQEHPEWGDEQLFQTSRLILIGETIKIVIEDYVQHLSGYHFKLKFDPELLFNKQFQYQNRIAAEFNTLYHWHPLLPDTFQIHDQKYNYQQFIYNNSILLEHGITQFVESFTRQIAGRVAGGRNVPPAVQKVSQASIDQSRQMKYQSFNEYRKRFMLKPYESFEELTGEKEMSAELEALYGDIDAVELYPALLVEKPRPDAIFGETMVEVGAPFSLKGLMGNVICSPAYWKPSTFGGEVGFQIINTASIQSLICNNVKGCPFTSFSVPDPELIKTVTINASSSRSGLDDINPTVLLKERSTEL
Experiment: Recombinant human PGHS-2 enzyme assay (RHUCX2)
Type: biochemical
Conditions: read-out: RHUCX2 IC50 (parenthetical value)
pIC50: −log10 of the molar value.
Property label: pIC50

compound_structure_string=CC(C)CCOc1c(-c2ccc(S(N)(=O)=O)cc2)cnn(-c2ccc(F)cc2)c1=O readout_value=6.69
compound_structure_string=CS(=O)(=O)c1ccc(-c2cnn(CC#Cc3ccccc3)c(=O)c2-c2ccc(F)cc2)cc1 readout_value=6.04
compound_structure_string=CS(=O)(=O)c1ccc(-c2cnn(-c3ccc(F)c(Cl)c3)c(=O)c2Cc2ccccc2)cc1 readout_value=7.10
compound_structure_string=CC(C)CCc1c(-c2ccc(S(N)(=O)=O)cc2)cnn(-c2ccc(F)c(Cl)c2)c1=O readout_value=6.70
